Biological target: Tyrosyl-tRNA synthetase, putative (Trypanosoma cruzi (strain CL Brener))
Experiment: Trypanosoma cruzi tyrosyl tRNA synthetase (TcYRS) _High Tyrosine SOP; also: in the data most compounds retested in dose-response had high values
Assay type: functional
Parameters: scale not given: direction of the effect not stated beside the values
Details: 30 µM
The threshold is 6%. Values of Percent Effect beneath it are tagged 1 (yes); values meeting or exceeding it are tagged 0 (no).

INSERT INTO measurements (molecule, assay_target, class_assignment) VALUES
  ('Cc1nc(C)c(C(=O)OCCNc2ncccc2C#N)s1', 'Tyrosyl-tRNA synthetase, putative (Trypanosoma cruzi (strain CL Brener))', '1 (yes)'),
  ('c1cnn(CC2CN(Cc3noc(C4CC4)n3)CCO2)c1 (stereo unspecified)', 'Tyrosyl-tRNA synthetase, putative (Trypanosoma cruzi (strain CL Brener))', '1 (yes)'),
  ('CC(C)NC(=O)C1CN(C(=O)Nc2ccccc2)CC12CCOCC2 (stereo unspecified)', 'Tyrosyl-tRNA synthetase, putative (Trypanosoma cruzi (strain CL Brener))', '0 (no)'),
  ('COc1ccc(OC)c(-c2nc(CN(C)Cc3nncn3C)c(C)o2)c1', 'Tyrosyl-tRNA synthetase, putative (Trypanosoma cruzi (strain CL Brener))', '0 (no)');

Req: Strictly below 6%: is that where Percent Effect of `CC(C)n1ccnc1C1CCN(Cc2ccc(Cl)c(F)c2)CC1` sits?
Resp: 0 (no)

Req: Strictly below 6%: is that where Percent Effect of `CCCNCc1cc2c(C)cc(C)cc2n2c(=O)n(C)nc12` sits?
Resp: 1 (yes)

---

Recorded Percent Effect, one value per entry.
Target: Ubiquitin-activating enzyme e1, putative (Leishmania donovani (strain BPK282A1))
Test: Leishmania donovani Ubiquitin Activating Enzyme (LdE1)
Format: functional
Parameters: scale not given: direction of the effect not stated beside the values
Settings: 30 µM
Measured potencies and affinities stand elsewhere.
Respond with the bare value in %.

See these solved cases before continuing.
INSERT INTO results (compound, readout_type, readout_value) VALUES
  ('CN(Cc1cccc(F)c1)C(=O)CN1CCOC(Cn2cccn2)C1 (stereo unspecified)', 'Percent Effect', 0),
  ('CS(=O)(=O)c1ccccc1C(=O)NCC1Cc2ccccc2O1 (stereo unspecified)', 'Percent Effect', 11),
  ('Cn1ccnc1CN1C[C@@H](CN2CCC(CO)CC2)[C@@H](CO)C1', 'Percent Effect', 5.41),
  ('CS(=O)(=O)NCc1nnc2n1CCN(Cc1cccs1)C2', 'Percent Effect', 2.7);

Req: Given c1ccc(CNC2CCc3ncnn3C2)nc1 (stereo unspecified) , respond with its Percent Effect.
Resp: 12.8

Req: Given `O=C(Nc1ccc(CCN2CCC(O)CC2)cc1)Nc1cccnc1` , respond with its Percent Effect.
Resp: 5.41

---

Recorded Percent Effect, one value per entry.
Biological target: Protein translocase subunit SecA (Escherichia coli (strain K12)) (UniProt P10408)
Sequence (P10408 whole entry): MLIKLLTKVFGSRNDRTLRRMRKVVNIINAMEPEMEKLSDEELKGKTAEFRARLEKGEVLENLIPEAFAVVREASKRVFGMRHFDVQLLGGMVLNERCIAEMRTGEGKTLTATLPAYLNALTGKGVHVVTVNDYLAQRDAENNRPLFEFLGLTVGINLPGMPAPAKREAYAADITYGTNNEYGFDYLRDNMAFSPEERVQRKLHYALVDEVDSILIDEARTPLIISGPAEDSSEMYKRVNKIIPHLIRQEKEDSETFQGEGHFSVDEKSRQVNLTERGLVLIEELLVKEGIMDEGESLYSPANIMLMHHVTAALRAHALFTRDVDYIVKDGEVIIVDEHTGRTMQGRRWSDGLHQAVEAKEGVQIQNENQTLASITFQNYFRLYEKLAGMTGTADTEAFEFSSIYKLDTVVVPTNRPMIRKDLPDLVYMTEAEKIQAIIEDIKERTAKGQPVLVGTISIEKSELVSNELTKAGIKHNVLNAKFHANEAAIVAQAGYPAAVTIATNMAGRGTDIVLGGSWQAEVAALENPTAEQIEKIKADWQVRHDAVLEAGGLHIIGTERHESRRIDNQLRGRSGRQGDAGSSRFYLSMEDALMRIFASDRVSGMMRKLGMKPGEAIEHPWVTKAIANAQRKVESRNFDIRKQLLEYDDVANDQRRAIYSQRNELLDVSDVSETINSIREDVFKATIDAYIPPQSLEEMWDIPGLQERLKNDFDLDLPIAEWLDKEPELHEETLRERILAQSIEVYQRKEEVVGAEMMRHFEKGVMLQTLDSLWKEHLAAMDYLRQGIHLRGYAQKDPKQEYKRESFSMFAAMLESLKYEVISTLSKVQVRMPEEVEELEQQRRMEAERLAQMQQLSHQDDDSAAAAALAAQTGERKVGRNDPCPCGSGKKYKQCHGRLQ
Test: Assay to Identify E. coli SecA ATPase Inhibitors
Format: functional
Set-up: scale not given: direction of the effect not stated beside the values
Conditions: 30 µM
Potency and affinity values are given separately.
Respond with the bare value in %.

INSERT INTO measurements (compound, assay_target, readout_value) VALUES
  ('CC(C)c1nc(CN(C)C2CCN(Cc3nc(C4CC4)no3)C2)no1 (stereo not drawn)', 'Protein translocase subunit SecA (Escherichia coli (strain K12)) (UniProt P10408)', 4.92),
  ('CC(C(=O)NCCN1CCCCCC1)n1cncn1 (stereo not drawn)', 'Protein translocase subunit SecA (Escherichia coli (strain K12)) (UniProt P10408)', -5.19),
  ('COc1ccc(CN(C)C(=O)NCc2c(C)cc(C)[nH]c2=O)cc1', 'Protein translocase subunit SecA (Escherichia coli (strain K12)) (UniProt P10408)', -4.97),
  ('O=C(Cc1cccnc1)N1CCC(OCc2ccccc2)CC1', 'Protein translocase subunit SecA (Escherichia coli (strain K12)) (UniProt P10408)', -7.08),
  ('COc1cccc(C(=O)N2CCCCC2CNC(N)=O)c1 (stereo not drawn)', 'Protein translocase subunit SecA (Escherichia coli (strain K12)) (UniProt P10408)', -9.94),
  ('Cc1nccn1-c1cccc(C2CCCN(C(=O)c3cc[nH]n3)C2)n1 (stereo not drawn)', 'Protein translocase subunit SecA (Escherichia coli (strain K12)) (UniProt P10408)', 0.661),
  ('Cc1cc(OCC(=O)NS(=O)(=O)c2c(C)noc2C)ccc1Cl', 'Protein translocase subunit SecA (Escherichia coli (strain K12)) (UniProt P10408)', -0.396),
  ('O=C(Cc1csc(-c2nnc[nH]2)n1)N1CCCC1Cn1cccn1 (stereo not drawn)', 'Protein translocase subunit SecA (Escherichia coli (strain K12)) (UniProt P10408)', -1.04);

Next, consider the following compound.
Req: Recall the reported Percent Effect of CC(=O)NC1CCCN(C(=O)c2ccc(Br)cc2O)C1 (stereo not drawn) on Protein translocase subunit SecA (Escherichia coli (strain K12)) (UniProt P10408) and write it down.
Resp: -4.72

The reported numbers originate from ChEMBL document CHEMBL3988442.
